Sourced from patent US20110098296A1

Tested on: SK-MEL-28 tumor cells
Assay: Method C: Cell Growth Inhibition Assay (CellTiter-Glo), SK-MEL-28
Type: cell-based
Settings: Homo sapiens, SK-MEL-28, 72 h, 3 days, 4-parameter fit
pIC50: −log10 of the molar value. Where a name gives a salt, the structure may show the parent alone.
property_measured: pIC50

Consider the reported pIC50 for these molecules:
CN1CCc2ccc(Nc3nccc(-c4sc(N)nc4-c4cccc(NC(=O)c5c(F)cccc5F)c4)n3)cc2C1 [Example 10, trifluoroacetate]    6.00 to 7.00
CN(C)CCOc1ccc(Nc2nccc(-c3sc(NS(=O)(=O)CC(F)(F)F)nc3-c3cccc(NC(=O)c4c(F)cccc4F)c3)n2)cc1    < 6.00
CN(C)c1nc(-c2cccc(NC(=O)c3c(F)cccc3F)c2)c(-c2ccnc(Nc3cccc(CN4CCCC4)c3)n2)s1    < 6.00
O=C(Nc1cccc(-c2nc(NC3CC3)sc2-c2ccnc(Nc3ccc(OCCN4CCCC4)c(F)c3)n2)c1)c1c(F)cccc1F    6.00 to 7.00

Input: Give the measured pIC50 of CCc1nc(-c2cccc(NC(=O)c3c(F)cccc3F)c2)c(-c2ccnc(Nc3ccc(OCCN4CCCC4)c(Cl)c3)n2)s1 .
Output: < 6.00

----------
System: Colo205 tumor cells
Test: Method A: Methylene Blue Growth Inhibition Assay, Colo205
Type: cell-based
Conditions: Homo sapiens, COLO 205, 72 h, 3 days
Description: Human breast (BT474) and head and neck (HN5) tumor cells were cultured in low glucose DMEM (Life Technologies 12320-032) containing 10% fetal bovine serum (FBS). […] Cells were harvested using trypsin/EDTA, counted using a haemocytometer, and plated in 100 μL of the appropriate media, at the following densities, in a 96-well tissue culture plate (Falcon 3075): BT474 10,000 cells/well, HN5 3,000 cells/well. […] Optical density at 620 nm was measured on a microplate reader. […]
pIC50: −log10 of the molar value.
Below, each of the molecules is paired with its reported pIC50 value.

Consider the reported pIC50 for these molecules:
CNc1nc(-c2cccc(NC(=O)c3cc(F)ccc3F)c2)c(-c2ccnc(Nc3ccc(OC)c(F)c3)n2)s1    < 6.00
COc1ccc(Nc2nccc(-c3sc(N)nc3-c3cccc(NC(=O)c4cc(F)ccc4F)c3)n2)cc1F    < 6.00

Input: Please state recorded pIC50 (tested on Colo205 tumor cells) of COc1cc(Nc2nccc(-c3sc(N)nc3-c3cccc(NC(=O)c4c(F)cccc4F)c3)n2)cc(OC)c1OC
Output: > 7.00

Input: Okay, and COc1ccc(Nc2nccc(-c3scnc3-c3cccc(NC(=O)c4c(F)cccc4F)c3)n2)cc1F ?
Output: < 6.00

----------
Below, each of the molecules is paired with its reported IC50 value.
Test system: HN5 tumor cells
Assay: Method C: Cell Growth Inhibition Assay (CellTiter-Glo), HN5
Format: cell-based
Conditions: Homo sapiens, 72 h, 3 days, 4-parameter fit

Consider the reported IC50 for these molecules:
CN(C)CCOc1ccc(Nc2nccc(-c3sc(N(C)C)nc3-c3cccc(NC(=O)c4c(F)cccc4F)c3)n2)cc1    < 100 nM
CC(=O)N1CCC(Oc2ccc(Nc3nccc(-c4sc(C)nc4-c4cccc(NC(=O)c5c(F)cccc5F)c4)n3)cc2F)CC1    100 to 1000 nM
CC(=O)Nc1nc(-c2cccc(NC(=O)c3c(F)cccc3F)c2)c(-c2ccnc(Nc3cccc(CN4CCCC4)c3)n2)s1    < 100 nM

Okay, now this molecule:
Input: Please state recorded IC50 (tested on HN5 tumor cells) of CC(C)c1nc(-c2cccc(NC(=O)c3c(F)cccc3F)c2)c(-c2ccnc(Nc3ccc(OCCN4CCCC4)c(Cl)c3)n2)s1
Output: 100 to 1000 nM

----------
System: Colo205 tumor cells
Assay: Method A: Methylene Blue Growth Inhibition Assay, Colo205
Format: cell-based
Conditions: Homo sapiens, COLO 205, 72 h, 3 days
Below, each of the molecules is paired with its reported IC50 value.

Input: Give the measured IC50 of COCCNc1nc(-c2cccc(NC(=O)c3cc(F)ccc3F)c2)c(-c2ccnc(Nc3ccc(OC)c(F)c3)n2)s1 [Example 52] .
Output: 100 to 1000 nM

Input: Okay, and Nc1nc(-c2cccc(NC(=O)c3c(F)cccc3F)c2)c(-c2ccnc(Nc3cccc(-c4cnco4)c3)n2)s1 [Example 14] ?
Output: < 100 nM

Input: Okay, and COCCOc1ccc(Nc2nccc(-c3sc(N)nc3-c3cccc(NC(=O)c4c(F)cccc4F)c3)n2)cc1F [Example 3] ?
Output: 100 to 1000 nM

Input: Okay, and COCCOc1ccc(Nc2nccc(-c3sc(N)nc3-c3cccc(NC(=O)c4cc(F)ccc4F)c3)n2)cc1F [Example 58] ?
Output: 100 to 1000 nM

Input: Okay, and CN(C)CCOc1ccc(Nc2nccc(-c3sc(N)nc3-c3cccc(OCc4ccccc4)c3)n2)cc1Cl [Example 70] ?
Output: 100 to 1000 nM

Input: Okay, and Nc1nc(-c2cccc(NC(=O)C3CCCCC3)c2)c(-c2ccnc(Nc3cccc(-c4cnco4)c3)n2)s1 [Example 62] ?
Output: 100 to 1000 nM

Input: Okay, and Nc1nc(-c2cccc(NC(=O)c3c(F)cccc3F)c2)c(-c2ccnc(Nc3ccc4c(c3)CNCC4)n2)s1 [Example 21] ?
Output: 100 to 1000 nM

Input: Okay, and Nc1nc(-c2cccc(OCc3ccccc3)c2)c(-c2ccnc(Nc3ccc4c(c3)CNCC4)n2)s1 [Example 71] ?
Output: > 1000 nM

Input: Okay, and CN(C)CCCNc1ccc(Nc2nccc(-c3sc(N)nc3-c3cccc(NC(=O)C4CCCCC4)c3)n2)cc1F [Example 60] ?
Output: 100 to 1000 nM

Input: Okay, and CN(C)CCCNc1ccc(Nc2nccc(-c3sc(N)nc3-c3cccc(NC(=O)c4cccn4C)c3)n2)cc1F [Example 65] ?
Output: 100 to 1000 nM

Input: Okay, and Nc1nc(-c2cccc(OCc3ccccc3)c2)c(-c2ccnc(Nc3cccc(-c4cnco4)c3)n2)s1 [Example 69] ?
Output: > 1000 nM

Input: Okay, and CN(C)CCOc1ccc(Nc2nccc(-c3sc(N)nc3-c3cccc(NC(=O)C4CCCCC4)c3)n2)cc1Cl [Example 61] ?
Output: 100 to 1000 nM
